Each item that follows carries a reported log10(IC50).
biological target: T1, TBD-6 (LC I93A); experiment: competition ELISA, Fab on captured TROP2
T1 construct: anti-TROP2 Fab, CDR3 LC alanine mutant
TEST READOUT: log10(IC50) (log10 of the value in µM)

{"columns": ["BINDER", "log10(IC50)"],
 "data": [
  ["VDFCYQYGWPICSRVD (mask peptide for the TROP2 Fab) [Peptide-45]", 1.16],
  ["VDFCYQYAWPVCSTGD (mask peptide for the TROP2 Fab) [Peptide-52]", 1.09],
  ["VDFCALYHWPICYQ (mask peptide for the TROP2 Fab) [Peptide-43]", -0.32],
  ["VDFCYMYKWPVCYP (mask peptide for the TROP2 Fab) [Peptide-48]", 0.80],
  ["VDFCALYNWPVCAI (mask peptide for the TROP2 Fab) [Peptide-59]", 0.29],
  ["VDFCAIYSWPICKI (mask peptide for the TROP2 Fab) [Peptide-50]", -0.04],
  ["IDFCYRYGWPVCQT (mask peptide for the TROP2 Fab) [Peptide-57]", 1.10],
  ["IDFCRVYDWPVCSL (mask peptide for the TROP2 Fab) [Peptide-53]", 0.65],
  ["VDFCNLYHWPICAI (mask peptide for the TROP2 Fab) [Peptide-60]", -0.17],
  ["VDFCYKYNWPICSR (mask peptide for the TROP2 Fab) [Peptide-55]", 0.49],
  ["VDFCYQYGWPICSRV (mask peptide for the TROP2 Fab) [Peptide-56]", 0.75],
  ["VDFCGLYHWPICYQV (mask peptide for the TROP2 Fab) [Peptide-51]", -0.38],
  ["VEFCAIYSWPICKI (mask peptide for the TROP2 Fab) [Peptide-46]", 0.71],
  ["VDFCYRYSWPVCWA (mask peptide for the TROP2 Fab) [Peptide-54]", 1.37],
  ["IDFCLLYKWPVCEL (mask peptide for the TROP2 Fab) [Peptide-49]", 0.35],
  ["VDFCYQYGWPICSRLY (mask peptide for the TROP2 Fab) [Peptide-47]", 0.88],
  ["VDFCALYHWPVCGL (mask peptide for the TROP2 Fab) [Peptide-61]", 0.08],
  ["VDFCGLYHWPICYQ (mask peptide for the TROP2 Fab) [Peptide-8]", -0.12]
]}
